B1: S. cerevisiae Abp1 (full length; SH3 domain 535-592 mutated) / Hua2 (parent)
chain 1: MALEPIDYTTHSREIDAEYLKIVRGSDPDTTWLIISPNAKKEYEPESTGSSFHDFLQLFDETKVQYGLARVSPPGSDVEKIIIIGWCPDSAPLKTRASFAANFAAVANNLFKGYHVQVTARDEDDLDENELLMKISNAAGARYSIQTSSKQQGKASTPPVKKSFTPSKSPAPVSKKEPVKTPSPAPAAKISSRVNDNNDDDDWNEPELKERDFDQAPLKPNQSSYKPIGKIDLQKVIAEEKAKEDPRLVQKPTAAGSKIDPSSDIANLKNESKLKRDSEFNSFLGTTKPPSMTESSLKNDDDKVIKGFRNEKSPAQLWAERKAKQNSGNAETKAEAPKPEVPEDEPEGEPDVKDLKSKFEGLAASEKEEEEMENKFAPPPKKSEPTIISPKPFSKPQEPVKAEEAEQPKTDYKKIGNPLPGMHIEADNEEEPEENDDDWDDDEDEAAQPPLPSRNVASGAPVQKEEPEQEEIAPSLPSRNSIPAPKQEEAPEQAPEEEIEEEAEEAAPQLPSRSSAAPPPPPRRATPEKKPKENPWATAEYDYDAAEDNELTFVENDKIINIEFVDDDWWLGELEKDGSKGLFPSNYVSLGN
chain 2: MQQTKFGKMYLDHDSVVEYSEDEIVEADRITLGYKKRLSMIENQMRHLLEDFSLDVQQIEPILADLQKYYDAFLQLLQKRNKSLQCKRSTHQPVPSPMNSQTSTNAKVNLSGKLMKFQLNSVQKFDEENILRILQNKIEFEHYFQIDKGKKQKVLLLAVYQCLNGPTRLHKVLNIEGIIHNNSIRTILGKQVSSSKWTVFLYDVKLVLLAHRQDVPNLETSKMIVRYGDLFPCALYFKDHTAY

variants of: B1; assay: DHFR protein-fragment complementation in yeast (Abp1-DHFR F[1,2] x partner-DHFR F[3]), deep mutational scanning, second methotrexate selection vs reference; settings: with Hua2; S. cerevisiae, DHFR-PCA selection in liquid with methotrexate at 30 C, two 72 h selections (the score uses the second); reference = the pre-selection culture; not an affinity; scale: DMS score: mean over two replicates of log2(f_test/f_ref + 0.5)/ln 2, minus the synonymous-codon median
Measure: screen value

chain 1 I559T | -2.21
chain 1 P584H | -2.12
chain 1 V565I | -1.06
chain 1 E575R | -1.6
chain 1 W569R | -2.35
chain 1 D568C | -2.91

(1) chain 1 F553S
(2) chain 1 N561E
// task: argmin of screen value over [ 1 , 2 ] Which one? Tell me its label.
1
(1: -2.83, 2: -1.17)
